We begin with a simple list: items and their reported pIC50.
# method.description: Cytotoxicity against human HeLaS3 cells assessed as cell viability after 24 to 72 hrs by MTT assay
# Assay type: functional, cell-based
# condition.info: HeLa S3
pIC50: −log10 of the molar value.
outcome.measure: pIC50

* CNC(=O)NCC[n+]1ccc2c(C(=O)OC)c3[nH]c4ccccc4c3c(C)c2c1 | 5.18
* COC(=O)c1c2cc[n+](CCNC(=O)N(C)N=O)cc2c(C)c2c1[nH]c1ccccc12 | 4.82
* Cc1c2ccncc2c(C)c2c1[nH]c1ccccc12 [ELLIPTECINE] | 5.68
* COC(=O)c1c2cc[n+](CCCN)cc2c(C)c2c1[nH]c1ccccc12 | 5.60
* CNC(=O)NCCOCC[n+]1ccc2c(C)c3c(c(C)c2c1)c1cc(O)ccc1n3C | 5.21
* COC(=O)c1c2cc[n+](CCOCCN)cc2c(C)c2c1[nH]c1ccccc12 | 4.38
* CNC(=O)NCCOCC[n+]1ccc2c(C)c3[nH]c4ccc(O)cc4c3c(C)c2c1 | 4.53
* COC(=O)c1c2cc[n+](CCOCCNC(=O)N(C)N=O)cc2c(C)c2c1[nH]c1ccccc12 | 4.28
* Cc1c2cc[n+](CCOCCN)cc2c(C)c2c1[nH]c1ccccc12 | 4.56
* Cc1c2c[n+](CCCCCN)ccc2c(C)c2c1c1cc(O)ccc1n2C | 4.71
* CNC(=O)NCCCCC[n+]1ccc2c(C)c3c(c(C)c2c1)c1cc(O)ccc1n3C | 4.49
* Cc1c2cc[n+](CCOCCNC(=O)N(C)N=O)cc2c(C)c2c1[nH]c1ccc(O)cc12 | 4.22
* CNC(=O)NCCOCC[n+]1ccc2c(C)c3[nH]c4ccccc4c3c(C)c2c1 | 4.12
* Cc1c2cc[n+](CCOCCN)cc2c(C)c2c1[nH]c1ccc(O)cc12 | 4.75
